FYI, the data here is from PubChem BioAssay (NCI).

Test system: TK-10 renal
Test: NCI-60 one-dose screen, 48 h
Conditions: 10 µM unless noted
The panel holds about 83,000 compounds, 20% with a hit somewhere; the sample as a whole holds those more often. The source made the active and inactive calls. How the source made its calls: active means growth percent below 10; inactive means the rest.
Outcome codes: active, inactive

# Compound, Assigned label
data = [
    ("COc1ccc2c(c1)nc(NNC(=O)c1cnccn1)c1cccn12", "inactive"),
    ("O=c1c2cc(F)cc(Cl)c2sc2c(NCCCNCCO)nc3ccccc3c12", "inactive"),
    ("CCCCCCn1c(-c2ccc(C(=O)O/N=C(\\N)c3ccc4c(c3)OCO4)cc2)nc(-c2ccccc2)c1-c1ccccc1", "active"),
    ("CCOc1c(B(O)O)cccc1-c1nc2ccc3[nH]ncc3c2c2c1CCCC2", "inactive"),
    ("Cc1ccc(C2CC(c3ccc(Nc4ccnc5cc(Cl)ccc45)cc3)=NN2C=O)cc1 (stereo not given)", "inactive"),
    ("O=c1n(Cc2ccc3ccccc3c2)ccn1Cc1ccc2ccccc2c1", "inactive"),
    ("CNc1nc2c(s1)C(c1cccc(F)c1)CC(=O)N2 (stereo not given)", "inactive"),
    ("COc1ccc(OC)c(/C=C/c2nnc(Nc3ccccc3)o2)c1", "inactive"),
    ("CCN1C(=O)N(CC)C2Nn3c(s/c(=C4\\C(=O)N(CC(C)C)c5ccccc54)c3=O)=NC21 (stereo not given)", "inactive"),
    ("NCCNc1nc2ccccc2c2c(=O)c3cccc(F)c3sc12", "inactive"),
]

* * *

Tested on: NCI-H460 lung
Assay: NCI-60 one-dose screen, 48 h
Details: 10 µM unless noted
About 83,000 compounds went through this panel and 20% of them were active in at least one assay; those are over-represented in the sample as a whole. The source made the active and inactive calls. The calls were made as follows: active = growth percent below 10; inactive = the rest.
Outcome codes: active, inactive

# Compound, Assigned label
rows = [
    ("COc1cccc(Cc2nn3cc(-c4ccccc4)nc3s2)c1", "inactive"),
    ("COc1ccc(C2C(N)=NNC2c2cccc(O)c2)cc1 (stereo unspecified)", "inactive"),
    ("COc1ccc(OC)c(/C=C2\\Oc3cc(OCCN4CCC(Cc5ccccc5)CC4)ccc3C2=O)c1", "inactive"),
    ("O=c1c2cc(F)ccc2sc2c(N3CCNCC3)nc3ccccc3c12", "active"),
    ("c1ccc(Nc2cc(-c3cccnc3)[nH]n2)cc1", "inactive"),
    ("Cc1cc2nc3cc(C)c(N)cc3[n+](-c3ccccc3)c2cc1N", "inactive"),
]

* * *

System: HCC-2998 colon
Assay: NCI-60 one-dose screen, 48 h (100 = growth as untreated, 0 = no growth, -100 = all killed)
Settings: 10 µM unless noted
The panel holds about 83,000 compounds, 20% with a hit somewhere; the sample as a whole holds those more often.
growth under 10% gets label 1, anything at or over 10% gets label 0.

# Item smiles, Study target, Assigned label
records = [
    ("Cc1ccc2sc3c(NCCCN)nc4ccccc4c3c(=O)c2c1", "HCC-2998 colon", "label 1"),
    ("CCOC(=O)/C=C1\\S/C(=N\\Nc2ccc([N+](=O)[O-])cc2[N+](=O)[O-])N(Cc2ccccc2)C1=O", "HCC-2998 colon", "label 0"),
    ("COc1ccc(/C=C/c2c(C(=O)/C=C/c3ccc(Cl)cc3)c(C)nc3ccccc23)cc1", "HCC-2998 colon", "label 1"),
    ("Cc1nn(-c2ccccc2)c(-n2ccnc2)c1/C=N/Nc1nc(-c2ccc(Cl)c(Cl)c2)cs1", "HCC-2998 colon", "label 0"),
    ("O=C(Nc1ccc(Br)cc1F)c1cc(Br)ccc1O", "HCC-2998 colon", "label 0"),
]
